Kindly supply the reported pIC50 values for the records listed here.
biological target: Recombinant human tissue kallikrein (KLK1) (Homo sapiens (Human), UniProt P06870); experiment: KLK1 kallikrein activity inhibition assay (Pro-Phe-Arg-AMC substrate); type: biochemical; conditions: Table B
Sequence (P06870 25-262): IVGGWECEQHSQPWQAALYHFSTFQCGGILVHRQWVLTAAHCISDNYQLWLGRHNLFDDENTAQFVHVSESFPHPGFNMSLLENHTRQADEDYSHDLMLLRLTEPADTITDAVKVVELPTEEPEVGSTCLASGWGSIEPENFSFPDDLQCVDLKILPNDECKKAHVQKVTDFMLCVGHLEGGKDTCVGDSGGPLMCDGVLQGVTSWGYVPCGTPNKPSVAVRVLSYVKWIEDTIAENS
pIC50: −log10 of the molar value.

>>> recorded_measurement("COc1ccccc1C(=O)n1nc(C2CCCCC2O)cc1NCc1ccc(Cl)s1 (stereo not drawn)")
"< 4.00"

For every item in the list below, what is its measured pIC50?
1. COCCn1cccc(-c2cc(NCc3ccc(Cl)s3)n(C(=O)c3ccccc3Cl)n2)c1=O
2. COc1ccccc1C(=O)n1nc(-c2cccn(CC(=O)N3CCOCC3)c2=O)cc1NCc1ccc(Cl)s1
3. Nc1ccccc1C(=O)n1nc(-c2ncccc2F)cc1NCc1ccc(Cl)s1
4. COc1ccc(C(=O)n2nc(-c3cccn(Cc4cccnc4)c3=O)cc2NCc2ccc(Cl)s2)c(OC)c1
5. O=C(c1ccccc1Cl)n1nc(-c2cccn(Cc3cccnc3)c2=O)cc1NCc1ccc(Cl)s1

Result ::
1. < 4.00
2. < 4.00
3. 4.00 to 5.00
4. < 4.00
5. < 4.00
